B1: CCDC6 (parent)
chain: TLFKKIQALQKEKETLAVNYEKEE

- Variants of: B1
- ASSAY_PROTOCOL: protein stability index of a GFP-peptide fusion (GPS, HEK-293T) (PSI 1-6); higher = more stable;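 further: lentivirally expressed fusions sorted by FACS into six bins by GFP to DsRed ratio, PSI derived from sequencing read proportions per bin multiplied by bin number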
- CONDITIONS_USED: c terminus: a fixed tail appended
# binarize protein stability index: threshold 3 inclusive, high side Met, low side Not met

Previously resolved entries follow.
K11Q; Met
V18E; Met
K4V; Met
L2Y; Met
A8R; Met
E14R; Not met
K11S; Met
L16S; Met

// query Say whether L16M shows protein stability index of 3 or more.
// result Met

// query Answer whether protein stability index of K5H is greater than or equal to 3.
// result Not met

// query Does protein stability index meet or surpass 3 for E24G ?
// result Not met

// query # bool: protein stability index of E24M >= 3
// result Not met

// query Hi team, for V18F , is the recorded protein stability index at or above 3?
// result Not met

// query Determine whether this variant has protein stability index no lower than 3: L9A
// result Met

// query Answer whether protein stability index of E12R is greater than or equal to 3.
// result Not met

Origin of values: the supplement of paper PMC10567573
